Cited source for all entries: the Kinase Knowledgebase extract (Sharma et al. 2016)

biological target: UniProt P00533
Sequence (P00533 whole entry, looked up): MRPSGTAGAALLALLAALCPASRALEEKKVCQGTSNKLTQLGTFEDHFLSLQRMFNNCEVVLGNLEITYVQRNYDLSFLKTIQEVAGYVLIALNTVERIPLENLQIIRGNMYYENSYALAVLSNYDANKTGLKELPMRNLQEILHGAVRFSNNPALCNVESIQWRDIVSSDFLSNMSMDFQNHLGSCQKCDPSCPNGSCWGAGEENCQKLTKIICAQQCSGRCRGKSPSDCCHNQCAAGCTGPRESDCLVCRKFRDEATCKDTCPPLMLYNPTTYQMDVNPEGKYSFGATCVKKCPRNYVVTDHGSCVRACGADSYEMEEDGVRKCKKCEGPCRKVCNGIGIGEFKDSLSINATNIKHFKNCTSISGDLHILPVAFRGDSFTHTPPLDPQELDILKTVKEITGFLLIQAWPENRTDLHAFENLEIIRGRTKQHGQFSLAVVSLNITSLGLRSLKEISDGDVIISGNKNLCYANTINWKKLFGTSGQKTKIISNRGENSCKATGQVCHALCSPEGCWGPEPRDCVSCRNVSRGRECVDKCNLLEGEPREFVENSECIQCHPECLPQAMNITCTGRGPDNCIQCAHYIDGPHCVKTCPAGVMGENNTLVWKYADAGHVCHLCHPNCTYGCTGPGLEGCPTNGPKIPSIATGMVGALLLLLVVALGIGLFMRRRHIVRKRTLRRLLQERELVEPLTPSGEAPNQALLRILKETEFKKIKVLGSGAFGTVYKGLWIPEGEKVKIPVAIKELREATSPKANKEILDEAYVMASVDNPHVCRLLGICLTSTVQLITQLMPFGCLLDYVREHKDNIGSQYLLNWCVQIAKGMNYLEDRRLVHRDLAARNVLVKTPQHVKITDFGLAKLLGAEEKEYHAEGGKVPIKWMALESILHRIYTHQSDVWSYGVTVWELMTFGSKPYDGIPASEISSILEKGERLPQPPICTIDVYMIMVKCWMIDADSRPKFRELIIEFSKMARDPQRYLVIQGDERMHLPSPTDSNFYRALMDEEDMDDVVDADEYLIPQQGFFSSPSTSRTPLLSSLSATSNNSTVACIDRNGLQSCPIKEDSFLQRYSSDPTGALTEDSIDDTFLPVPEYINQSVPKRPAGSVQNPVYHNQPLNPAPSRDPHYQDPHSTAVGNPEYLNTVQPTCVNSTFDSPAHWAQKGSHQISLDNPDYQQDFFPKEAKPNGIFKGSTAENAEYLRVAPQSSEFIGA
Each entry below carries its reported IC50.

{"structure": "Cc1ccc2c(c1)CCCN2c1ncnc(NCCN2CCOCC2)n1", "endpoint_result": "> 4.5 µg/mL"}
{"structure": "Cc1ccc2c(c1)CCCN2c1ncnc(Nc2cccc(Cl)c2C)n1", "endpoint_result": "2.4 to 3.5 µg/mL"}
{"structure": "COc1cc(Nc2ncnc(-c3ccnc(NCCCO)c3)n2)cc(OC)c1OC", "endpoint_result": "> 4.5 µg/mL"}
{"structure": "COc1cc(Nc2ncnc(Nc3ccc(F)cc3)n2)cc(OC)c1OC", "endpoint_result": "0.4 to 2.4 µg/mL"}

Q: Would you kindly share the measured IC50 for c1ccc(-c2cc(Nc3ncnc(Nc4ccc5[nH]ncc5c4)n3)[nH]n2)cc1 ?
Ans: 0.4 to 2.4 µg/mL

Q: Report IC50 for CC(C)(C)OC(=O)NCc1cccc(Nc2ncnc(Nc3cc(-c4ccco4)n[nH]3)n2)c1 please.
Ans: 0.4 to 2.4 µg/mL
